Just for reference, the supplement of paper PMC10126150 is where these values come from.

Test system: ATP;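 note: ATP exposure 15 min at 22 °C before imaging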
ASSAY TEXT: switch fluorescence ratio, 500 uM ATP over buffer (Cy3 cluster intensity, sum of 5 cycles each) (fold (ratio)); higher = stronger signal-on switching upon ATP binding; sequences stand for … in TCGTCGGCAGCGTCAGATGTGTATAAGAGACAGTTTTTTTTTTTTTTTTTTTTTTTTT…TC
CONDITION LABEL: aptamer strand: ATP DNA aptamer (quencher-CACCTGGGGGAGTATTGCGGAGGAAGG + anchor), 100 nM annealed; ATP concentration: 500 uM
A collection of sequences and their measured switch fluorescence ratio
Answer using only a numeral; do not append any unit.

{"columns": ["ITEM SEQUENCE", "switch fluorescence ratio"],
 "data": [
  ["TTAAGACCAC", 1.01],
  ["AAGAAGTTGC", 0.986],
  ["TGCCAAGGTT", 1.02],
  ["TCGAGCGAAC", 2.1],
  ["ATGGGGGATA", 0.973],
  ["CAAGGGGGTG", 1.03],
  ["ATAAGTTTTG", 0.978],
  ["AAAATTGAAA", 0.988]
]}

Problem: Look up switch fluorescence ratio for this sequence: `ATGTGTATTG`
Result: 0.985

Problem: Again, but for `ATAAAAGGAT`
Result: 0.973

Problem: Again, but for `ATTTGTTTTT`
Result: 0.978

Problem: Again, but for `CATTGTGGGT`
Result: 0.975

Problem: Again, but for `ACTTAGACAC`
Result: 1.09

Problem: Again, but for `GTGAGATCGG`
Result: 0.991

Problem: Again, but for `ATGCTTTCAG`
Result: 0.983

Problem: Again, but for `TGGGGGAGGC`
Result: 0.973

Problem: Again, but for `TTATGTTAAA`
Result: 1.01

Problem: Again, but for `ACACTCATGG`
Result: 1.03

Problem: Again, but for `GGGGGAAACT`
Result: 1.01

Problem: Again, but for `ATTGTGCCGA`
Result: 0.972

Problem: Again, but for `CGATAATTTG`
Result: 0.994

Problem: Again, but for `TTTCGCGTGG`
Result: 0.971

Problem: Again, but for `GAGTTAGAAG`
Result: 0.966

Problem: Again, but for `TTGTTTTCCG`
Result: 1.02

Problem: Again, but for `ATTAGGTTGA`
Result: 0.975

Problem: Again, but for `TGTCGGGATG`
Result: 1.01

Problem: Again, but for `TTAAAGACGT`
Result: 1.51

* * *

Test system: ATP;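 note: ATP exposure 15 min at 22 °C before imaging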
ASSAY TEXT: switch fluorescence ratio, 500 uM ATP over buffer (Cy3 cluster intensity, sum of 5 cycles each) (fold (ratio)); higher = stronger signal-on switching upon ATP binding; sequences stand for … in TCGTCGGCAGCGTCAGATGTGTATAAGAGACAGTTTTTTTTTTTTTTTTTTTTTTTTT…TC
CONDITION LABEL: aptamer strand: ATP DNA aptamer (quencher-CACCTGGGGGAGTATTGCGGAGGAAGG + anchor), 100 nM annealed; ATP concentration: 500 uM
A collection of sequences and their measured switch fluorescence ratio
Answer using only a numeral; do not append any unit.

Worked cases, answers included:
{"columns": ["ITEM SEQUENCE", "ASSAYED TARGET", "switch fluorescence ratio"],
 "data": [
  ["GGGGGCTGCT", "ATP", 0.962],
  ["TATAAGTTGT", "ATP", 1],
  ["AGTTGAAATA", "ATP", 0.982],
  ["CCATGGGTGG", "ATP", 1.01],
  ["TGAAGGGTGA", "ATP", 1.01],
  ["TCGATGCAAG", "ATP", 1.23],
  ["TTATTATTGA", "ATP", 0.989],
  ["TGTTAGGGG", "ATP", 1]
]}

Problem: Look up switch fluorescence ratio for this sequence: `AGGCGCTTAT`
Result: 1.33

Problem: Again, but for `TACTTTAATT`
Result: 1.04

Problem: Again, but for `TATTTTTGTT`
Result: 1.05

Problem: Again, but for `CGGTCCAATC`
Result: 1.37

Problem: Again, but for `AAATCCAATA`
Result: 1.01

Problem: Again, but for `ATAGAGAGAG`
Result: 1.02

Problem: Again, but for `GGTTCTTTAG`
Result: 1.01

Problem: Again, but for `GGGGGCTGCC`
Result: 0.986
